target: CB1 receptor (Rattus norvegicus, UniProt P20272); assay: biochemical; type: binding; conditions: 1 nM [3H] CP 55,940, rat whole brain P2 membranes, 30° C. for 1 hr; read-out: Ki
Sequence (P20272 whole entry): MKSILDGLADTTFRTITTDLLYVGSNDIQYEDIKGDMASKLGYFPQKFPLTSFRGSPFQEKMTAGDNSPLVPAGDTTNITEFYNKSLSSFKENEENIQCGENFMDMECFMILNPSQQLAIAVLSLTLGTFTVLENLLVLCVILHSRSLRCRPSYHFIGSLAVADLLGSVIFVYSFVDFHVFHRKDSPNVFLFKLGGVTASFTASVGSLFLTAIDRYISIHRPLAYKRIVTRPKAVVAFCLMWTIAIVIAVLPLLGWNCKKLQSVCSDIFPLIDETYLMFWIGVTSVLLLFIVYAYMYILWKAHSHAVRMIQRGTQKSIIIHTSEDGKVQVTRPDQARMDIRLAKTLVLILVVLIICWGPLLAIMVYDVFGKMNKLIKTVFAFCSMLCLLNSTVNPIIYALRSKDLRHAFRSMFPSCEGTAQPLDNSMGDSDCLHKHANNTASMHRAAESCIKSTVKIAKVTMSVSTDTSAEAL
Entries and their Ki values follow.
recorded_metric: Ki (nM)

>>> assay_result("CCCCCc1ccc(-c2c(-c3ccc(Cl)cc3Cl)nn(C(=O)NN3CCCCC3)c2Br)cc1 [Compound O-1691]")
1.5
>>> assay_result("CCCCC(C)c1c(C)c(C(=O)NN2CCCCC2)nn1-c1ccc(Cl)cc1Cl (centres unmarked) [Compound O-1559]")
233
>>> assay_result("CCCCCc1ccc(-n2nc(C(=O)NN3CCCCC3)c(C)c2-c2ccc(Cl)cc2)cc1 [Compound O-1255]")
433
>>> assay_result("Cc1c(C(=O)NCCF)nn(-c2ccc(Cl)cc2Cl)c1-c1ccc(Cl)cc1 [Compound O-1398]")
852
>>> assay_result("CCCCCCCC(=O)c1nn(-c2ccc(Cl)cc2Cl)c(-c2ccc(Cl)cc2)c1C [Compound O-1272]")
221

====

target: CB1 receptor (Rattus norvegicus, UniProt P20272); experiment: biochemical; format: binding; settings: Ki (nM), 1 nM [3H] CP 55,940, rat whole brain P2 membranes, 30° C. for 1 hr
Decide using Ki alone. Strictly below 80 nM: Criterion met. Equal to or above 80 nM: Criterion not met.

>>> label("CCCCCc1ccc(-c2cc(C(=O)NN3CCCCC3)nn2-c2ccc(Cl)cc2Cl)cc1")
"Criterion met"
>>> label("CCCCc1ccc(-n2nc(C(=O)NN3CCCCC3)c(C)c2-c2ccc(Cl)cc2)cc1")
"Criterion not met"
>>> label("CCCCCNC(=O)c1nn(-c2ccc(Cl)cc2Cl)c(-c2ccc(Cl)cc2)c1C")
"Criterion met"
>>> label("Cc1c(C(=O)NN2CCCCC2)nn(-c2ccccc2)c1-c1ccc(Cl)cc1")
"Criterion not met"

Where these numbers come from: patent US6509367B1
